# credit: patent US11566007B2

Quick list: IC50 per entry.
# Experimental system: KRAS G12S (Homo sapiens (Human), UniProt P01116+P62937, G12S)
# Sequence (P01116-2 other isoform, or with tags, fused parts or gaps G12S): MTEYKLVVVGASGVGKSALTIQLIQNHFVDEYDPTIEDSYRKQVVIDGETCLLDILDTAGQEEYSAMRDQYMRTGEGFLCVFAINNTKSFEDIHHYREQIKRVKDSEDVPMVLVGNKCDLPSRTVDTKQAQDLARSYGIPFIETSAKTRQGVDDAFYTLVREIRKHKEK
# Sequence (P62937 whole entry): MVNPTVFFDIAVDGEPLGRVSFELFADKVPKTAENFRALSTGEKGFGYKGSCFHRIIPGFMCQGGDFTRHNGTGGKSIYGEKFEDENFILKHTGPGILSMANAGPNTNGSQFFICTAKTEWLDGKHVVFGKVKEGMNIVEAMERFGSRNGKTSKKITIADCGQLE
# Assay overview: Ras-Raf (BRAF RBD) disruption / FRET / MOA assay, KRAS G12S
# Type: biochemical
# Stated conditions: Ras-Raf disruption/FRET/MOA assay; class symbols; read-out: KRAS G12S FRET data IC50

{"Compound": "CCn1c(-c2cccnc2[C@H](C)OC)c2c3cc(ccc31)-c1cc(CF)cc(c1)C[C@H](NC(=O)[C@@H](COC1CN(C(=O)C#CC(C)(C)N(C)C)C1)C(C)C)C(=O)N1CCC[C@H](N1)C(=O)OCC(C)(C)C2 (atropisomer, axis not shown)", "IC50": "> 10 µM"}
{"Compound": "CCn1c(-c2cccnc2[C@H](C)OC)c2c3cc(ccc31)-c1nc(nn1C)C[C@H](NC(=O)[C@@H](COC1CN(C(=O)C#CC(C)(C)N(C)C)C1)C(C)C)C(=O)N1CCC[C@H](N1)C(=O)OCC(C)(C)C2 (atropisomer, axis not shown)", "IC50": "1 to 10 µM"}
{"Compound": "C=CC(=O)N1C[C@@H](C(=O)N(C)[C@H](C(=O)N[C@H]2Cc3cc(O)cc(c3)-c3ccc4c(c3)c(c(-c3cccnc3COC)n4CC)CC(C)(C)COC(=O)[C@@H]3CCCN(N3)C2=O)C(C)C)C[C@H]1C", "IC50": "0.1 to 1 µM"}
{"Compound": "CCn1c(-c2cccnc2[C@H](C)OC)c2c3cc(ccc31)-c1cccc(c1)C[C@H](NC(=O)[C@H](C(C)C)N(C)C(=O)[C@H]1CCN(C(=O)C#CC3(N(C)C)CCOCC3)C1)C(=O)N1CCC[C@H](N1)C(=O)OCC(C)(C)C2 (atropisomer, axis not shown)", "IC50": "1 to 10 µM"}
